Molecular target: T1, ZFP SBS#1360 (synthetic)
T1 chain: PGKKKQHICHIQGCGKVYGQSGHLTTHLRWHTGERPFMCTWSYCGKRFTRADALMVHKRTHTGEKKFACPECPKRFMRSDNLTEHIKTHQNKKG
Assay: EMSA
Conditions: tags: MBP fusion
pKd: −log10 of the molar value.

>  <BINDER>
CAGTTGTGA (dsDNA) DNA 1: CAGTTGTGA DNA 2: TCACAACTG

>  <pKd>
7.38

$$$$
